# assay method text: Solubility of the Example 1 compound in organic solvents
# Assay type: physicochemical
# condition label: 25 °C, organic solvent or mixture, thermodynamic from solid; EtOAc, RT

>  <chemical structure>
CC(C)c1nc(-c2cnc(N)c(OC(F)(F)F)c2)cn1C12CC(N3CCOCC3)(C1)C2

>  <solubility at 2 h>
> 50 mg/mL

$$$$

----------
# assay method text: Solubility of hydrogen fumarate salt 11 (1000 mg scale-up batch)
# Format: physicochemical
# condition label: ethanol, organic solvent or mixture; EtOH, 50° C.
measured attribute: solubility

>  <chemical structure>
CC(C)c1nc(-c2cnc(N)c(OC(F)(F)F)c2)cn1C12CC(N3CCOCC3)(C1)C2.O=C(O)/C=C/C(=O)O

>  <value>
20 to 33 mg/mL

$$$$

----------
# assay method text: Dynamic vapor sorption (DVS), hygroscopicity
# Type: physicochemical
# condition label: DVS, 25° C., 0-40% RH
Recorded Hygroscopicity (0-40% RH) values for a group of compounds are listed next.

>  <compound>
CC(C)c1nc(-c2cnc(N)c(OC(F)(F)F)c2)cn1C12CC(N3CCOCC3)(C1)C2 [Example 1]

>  <Hygroscopicity (0-40% RH), %>
0.11

$$$$
>  <compound>
CC(C)c1nc(-c2cnc(N)c(OC(F)(F)F)c2)cn1C12CC(N3CCOCC3)(C1)C2.O=C(O)CC(O)(CC(=O)O)C(=O)O [Example 8]

>  <Hygroscopicity (0-40% RH), %>
0.17

$$$$
>  <compound>
CC(C)c1nc(-c2cnc(N)c(OC(F)(F)F)c2)cn1C12CC(N3CCOCC3)(C1)C2.O=C(O)CCC(=O)O [Example 10]

>  <Hygroscopicity (0-40% RH), %>
0.05

$$$$
>  <compound>
CC(C)c1nc(-c2cnc(N)c(OC(F)(F)F)c2)cn1C12CC(N3CCOCC3)(C1)C2.O=C(O)/C=C\C(=O)O [Example 9]

>  <Hygroscopicity (0-40% RH), %>
0.07

$$$$
>  <compound>
CC(C)c1nc(-c2cnc(N)c(OC(F)(F)F)c2)cn1C12CC(N3CCOCC3)(C1)C2.O=C(O)/C=C/C(=O)O [Example 11]

>  <Hygroscopicity (0-40% RH), %>
0.1

$$$$

----------
# assay method text: Solubility of hydrogen fumarate salt 11 (1000 mg scale-up batch)
# Type: physicochemical
# condition label: ethanol, organic solvent or mixture; EtOH, RT

>  <chemical structure>
CC(C)c1nc(-c2cnc(N)c(OC(F)(F)F)c2)cn1C12CC(N3CCOCC3)(C1)C2.O=C(O)/C=C/C(=O)O

>  <solubility>
< 20 mg/mL

$$$$

----------
# assay method text: Solubility in physiologically relevant solutions (SGF, FaSSIF, FeSSIF)
# Type: physicochemical
# condition label: FaSSIF, 25±0.5° C.

>  <chemical structure>
CC(C)c1nc(-c2cnc(N)c(OC(F)(F)F)c2)cn1C12CC(N3CCOCC3)(C1)C2.O=C(O)CCC(=O)O

>  <FaSSIF pH after 24 h>
5.92

$$$$
>  <chemical structure>
CC(C)c1nc(-c2cnc(N)c(OC(F)(F)F)c2)cn1C12CC(N3CCOCC3)(C1)C2

>  <FaSSIF pH after 24 h>
6.48

$$$$
>  <chemical structure>
CC(C)c1nc(-c2cnc(N)c(OC(F)(F)F)c2)cn1C12CC(N3CCOCC3)(C1)C2.O=C(O)/C=C\C(=O)O

>  <FaSSIF pH after 24 h>
5.65

$$$$
>  <chemical structure>
CC(C)c1nc(-c2cnc(N)c(OC(F)(F)F)c2)cn1C12CC(N3CCOCC3)(C1)C2.O=C(O)/C=C/C(=O)O

>  <FaSSIF pH after 24 h>
4.85

$$$$
>  <chemical structure>
CC(C)c1nc(-c2cnc(N)c(OC(F)(F)F)c2)cn1C12CC(N3CCOCC3)(C1)C2.O=C(O)CC(O)(CC(=O)O)C(=O)O

>  <FaSSIF pH after 24 h>
5.53

$$$$

----------
# assay method text: Solubility of hydrogen fumarate salt 11 (1000 mg scale-up batch)
# Type: physicochemical
# condition label: organic solvent or mixture; DMF, RT

>  <chemical structure>
CC(C)c1nc(-c2cnc(N)c(OC(F)(F)F)c2)cn1C12CC(N3CCOCC3)(C1)C2.O=C(O)/C=C/C(=O)O

>  <solubility>
> 100 mg/mL

$$$$

----------
# assay method text: Solubility in physiologically relevant solutions (SGF, FaSSIF, FeSSIF)
# Type: physicochemical
# condition label: 25 °C, thermodynamic from solid, FaSSIF, 25±0.5° C., read-out: Solubility FaSSIF Conc

>  <chemical structure>
CC(C)c1nc(-c2cnc(N)c(OC(F)(F)F)c2)cn1C12CC(N3CCOCC3)(C1)C2

>  <solubility at 24 h>
71.3 µg/mL

$$$$
>  <chemical structure>
CC(C)c1nc(-c2cnc(N)c(OC(F)(F)F)c2)cn1C12CC(N3CCOCC3)(C1)C2.O=C(O)CC(O)(CC(=O)O)C(=O)O

>  <solubility at 24 h>
113 µg/mL

$$$$
>  <chemical structure>
CC(C)c1nc(-c2cnc(N)c(OC(F)(F)F)c2)cn1C12CC(N3CCOCC3)(C1)C2.O=C(O)/C=C/C(=O)O

>  <solubility at 24 h>
459 µg/mL

$$$$
>  <chemical structure>
CC(C)c1nc(-c2cnc(N)c(OC(F)(F)F)c2)cn1C12CC(N3CCOCC3)(C1)C2.O=C(O)/C=C\C(=O)O

>  <solubility at 24 h>
113 µg/mL

$$$$
>  <chemical structure>
CC(C)c1nc(-c2cnc(N)c(OC(F)(F)F)c2)cn1C12CC(N3CCOCC3)(C1)C2.O=C(O)CCC(=O)O

>  <solubility at 24 h>
72.2 µg/mL

$$$$

----------
# assay method text: Solubility of the Example 1 compound in organic solvents
# Type: physicochemical
# condition label: water, thermodynamic from solid; H2O, 50° C.

>  <molecule>
CC(C)c1nc(-c2cnc(N)c(OC(F)(F)F)c2)cn1C12CC(N3CCOCC3)(C1)C2 [Example 1]

>  <solubility>
< 50 mg/mL

$$$$

----------
# assay method text: Solubility of the Example 1 compound in organic solvents
# Type: physicochemical
# condition label: 25 °C, aqueous with cosolvent or surfactant or cyclodextrin, thermodynamic from solid; 1/1 (v/v) Acetone/H2O, RT
# Procedure: Solubility of the Example 1 compound in various organic solvents was determined by the following procedure. […] The mixture was stirred at 800 rpm at 25° C. for 2 hr. If the compound was not dissolved completely by this time, the temperature was then raised to 50° C. and stirring at 800 rpm was continued overnight. […] In either case, the resulting material was evaluated by XRPD.
measured attribute: solubility at 2 h

>  <compound>
CC(C)c1nc(-c2cnc(N)c(OC(F)(F)F)c2)cn1C12CC(N3CCOCC3)(C1)C2 [Example 1]

>  <measured attribute>
solubility at 2 h

>  <value>
< 50 mg/mL

$$$$

----------
# assay method text: Stability (50° C., 40° C./75% RH, light; 1 week)
# Format: physicochemical
# condition label: 40° C., 75% RH, bulk, 1 week

>  <compound>
CC(C)c1nc(-c2cnc(N)c(OC(F)(F)F)c2)cn1C12CC(N3CCOCC3)(C1)C2 [Example 1]

>  <XRPD change?>
yes

$$$$
>  <compound>
CC(C)c1nc(-c2cnc(N)c(OC(F)(F)F)c2)cn1C12CC(N3CCOCC3)(C1)C2.O=C(O)CCC(=O)O [Example 10]

>  <XRPD change?>
no

$$$$
>  <compound>
CC(C)c1nc(-c2cnc(N)c(OC(F)(F)F)c2)cn1C12CC(N3CCOCC3)(C1)C2.O=C(O)CC(O)(CC(=O)O)C(=O)O [Example 8]

>  <XRPD change?>
no

$$$$
>  <compound>
CC(C)c1nc(-c2cnc(N)c(OC(F)(F)F)c2)cn1C12CC(N3CCOCC3)(C1)C2.O=C(O)/C=C\C(=O)O [Example 9]

>  <XRPD change?>
no

$$$$
>  <compound>
CC(C)c1nc(-c2cnc(N)c(OC(F)(F)F)c2)cn1C12CC(N3CCOCC3)(C1)C2.O=C(O)/C=C/C(=O)O [Example 11]

>  <XRPD change?>
no

$$$$

----------
Recorded purity values for a group of molecules are listed next.
# assay method text: Stability (50° C., 40° C./75% RH, light; 1 week)
# Format: physicochemical
# condition label: 40° C., 75% RH, bulk, 1 week
# Description: The stability of the free base 1 and the selected salts 8, 9, 10, and 11 was evaluated. For each material, aliquots were set up at each of conditions (50° C., 40° C./75% RH, light) at given time points (initial and 1 week). […]

>  <chemical structure>
CC(C)c1nc(-c2cnc(N)c(OC(F)(F)F)c2)cn1C12CC(N3CCOCC3)(C1)C2

>  <result unit>
%

>  <purity>
99.66

$$$$
>  <chemical structure>
CC(C)c1nc(-c2cnc(N)c(OC(F)(F)F)c2)cn1C12CC(N3CCOCC3)(C1)C2.O=C(O)/C=C/C(=O)O

>  <result unit>
%

>  <purity>
99.88

$$$$
>  <chemical structure>
CC(C)c1nc(-c2cnc(N)c(OC(F)(F)F)c2)cn1C12CC(N3CCOCC3)(C1)C2.O=C(O)CC(O)(CC(=O)O)C(=O)O

>  <result unit>
%

>  <purity>
99.41

$$$$
>  <chemical structure>
CC(C)c1nc(-c2cnc(N)c(OC(F)(F)F)c2)cn1C12CC(N3CCOCC3)(C1)C2.O=C(O)/C=C\C(=O)O

>  <result unit>
%

>  <purity>
99.87

$$$$
>  <chemical structure>
CC(C)c1nc(-c2cnc(N)c(OC(F)(F)F)c2)cn1C12CC(N3CCOCC3)(C1)C2.O=C(O)CCC(=O)O

>  <result unit>
%

>  <purity>
100

$$$$
